B1: Cyclin-F, residues 28 to 80; numbered along this chain, P41002 (parent)
chain: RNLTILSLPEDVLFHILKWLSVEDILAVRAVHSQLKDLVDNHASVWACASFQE

# Variants of: B1
# procedure_details: abundance fitness (aPCA) (normalised: wild type 0, dead -1); higher = more abundant; growth selection in yeast, the domain comes from the species named
# run_parameters: Homo sapiens
Decision: abundance fitness >= -0.7 yields 1, all other cases yield 0.

## Input Test whether the variant `W19L` records abundance fitness of -0.7 or higher.
## Output 1

## Input Check `I25R` too.
## Output 1

These entries and their values trace back to the Human Domainome abundance scans (Beltran et al. 2025).
